I'd be grateful if you could share measured IC50 for these entries.
# Tested on: β5c subunit of the 20S proteasome (Homo sapiens, UniProt P20618+P28074)
# Construct: The proteasome tested in the present disclosure was derived from Raji cells; endogenous in cells; host or cells: Raji cells
# Protocol: Proteasome inhibitory activity, β5c subunit (Raji cells treated with compound, lysed, Suc-LLVY-AMC substrate)
# Assay type: cell-based
# Stated conditions: proteasome from Raji cells incubated with compound 4 h

Answered cases to consult:
[[record]]
compound = "COc1cccc(CNC(=O)C(C(=O)N[C@@H](Cc2ccc(C)cc2)B(O)O)C(C)C)c1 (some centres unmarked)"
tested_on = "β5c subunit of the 20S proteasome (Homo sapiens, UniProt P20618+P28074)"
result = "≤ 50 nM"

[[record]]
compound = "Cc1ccc(C[C@H](NC(=O)C(C)C(=O)NCc2cccc(C(F)(F)F)c2)B(O)O)cc1 (some centres unmarked)"
tested_on = "β5c subunit of the 20S proteasome (Homo sapiens, UniProt P20618+P28074)"
result = "≤ 50 nM"

[[record]]
compound = "COc1cccc(CNC(=O)C(Cc2ccccc2)C(=O)N[C@@H](CC(C)C)B(O)O)c1 (some centres unmarked)"
tested_on = "β5c subunit of the 20S proteasome (Homo sapiens, UniProt P20618+P28074)"
result = "≤ 50 nM"

[[record]]
compound = "CC(C(=O)NCc1cccc(OC(F)(F)F)c1)C(=O)N[C@@H](Cc1coc2ccccc12)B(O)O (some centres unmarked)"
tested_on = "β5c subunit of the 20S proteasome (Homo sapiens, UniProt P20618+P28074)"
result = "≤ 50 nM"


Value sought for every listed compound: IC50.
1. COc1cccc(CNC(=O)C(Cc2ccccc2)C(=O)N[C@@H](Cc2ccc(C)cc2)B(O)O)c1 (some centres unmarked)
2. CC(C(=O)NCc1cccc(-c2ccccc2)n1)C(=O)N[C@@H](Cc1ccccc1)B(O)O (some centres unmarked)
3. Cc1ccc(C[C@H](NC(=O)C(C)C(=O)NCc2ccc(Cl)cc2Cl)B(O)O)cc1 (some centres unmarked)
4. CC(C(=O)NCc1cccc(-c2ccccc2)n1)C(=O)N[C@@H](Cc1coc2ccccc12)B(O)O (some centres unmarked)
5. COc1cccc(CNC(=O)C(CC2CC2)C(=O)N[C@@H](Cc2coc3ccccc23)B(O)O)c1 (some centres unmarked)
6. COc1cccc(CNC(=O)C(CC2CCCCC2)C(=O)N[C@@H](Cc2ccc(C)cc2)B(O)O)c1 (some centres unmarked)
7. CC(C(=O)NCc1ccc(Cl)cc1Cl)C(=O)N[C@@H](Cc1coc2ccccc12)B(O)O (some centres unmarked)

Result ::
["≤ 50 nM", "50 to 200 nM", "≤ 50 nM", "≤ 50 nM", "≤ 50 nM", "50 to 200 nM", "≤ 50 nM"]
